# target_under_test: SNAP-hSPR (sepiapterin reductase, SPR) (Homo sapiens)
# Sequence (P35270 whole entry): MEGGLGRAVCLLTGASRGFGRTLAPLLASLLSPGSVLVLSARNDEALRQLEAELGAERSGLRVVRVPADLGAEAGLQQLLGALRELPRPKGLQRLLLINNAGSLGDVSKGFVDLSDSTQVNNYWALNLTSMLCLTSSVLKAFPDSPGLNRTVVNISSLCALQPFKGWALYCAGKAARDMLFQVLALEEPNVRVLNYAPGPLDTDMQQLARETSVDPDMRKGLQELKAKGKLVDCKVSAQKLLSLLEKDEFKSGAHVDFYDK
The molecules listed here are annotated with their pIC50.
Worth noting: pIC50 values are minus log10 of concentrations stated in mol/L.

Consider the reported pIC50 for these molecules:
{"molecule": "Cc1ccccc1N1CCN(C(=O)c2cnn(-c3nc4c(c(=O)[nH]3)CCC4)c2C)CC1 [Q-0485]", "target_under_test": "SNAP-hSPR (sepiapterin reductase, SPR) (Homo sapiens)", "pIC50": 8.05}
{"molecule": "Cc1cc(=O)[nH]c(-n2ncc(C(=O)N3CCc4ccccc43)c2C)n1 [Q-0001]", "target_under_test": "SNAP-hSPR (sepiapterin reductase, SPR) (Homo sapiens)", "pIC50": 7.70}
{"molecule": "Cc1c(C(=O)N2CCN(S(=O)(=O)N(C)C)CC2)cnn1-c1nn2cccc2c(=O)[nH]1 [Q-1846]", "target_under_test": "SNAP-hSPR (sepiapterin reductase, SPR) (Homo sapiens)", "pIC50": 9.00}
{"molecule": "Cc1c(C(=O)N2CCN(C(=O)OC(C)(C)C)[C@H](C)C2)cnn1-c1nn2cccc2c(=O)[nH]1 [Q-0899]", "target_under_test": "SNAP-hSPR (sepiapterin reductase, SPR) (Homo sapiens)", "pIC50": 9.00}
{"molecule": "O=C(c1cnn(-c2nc3c(c(=O)[nH]2)CCC3)c1C1CC1)N1CCC(c2nc3ccccc3s2)CC1 [Q-0546]", "target_under_test": "SNAP-hSPR (sepiapterin reductase, SPR) (Homo sapiens)", "pIC50": 8.05}

Read the next record carefully.
Reported pIC50 (SNAP-hSPR (sepiapterin reductase, SPR) (Homo sapiens)) for entry Cc1c(C(=O)N2CCN(C3CC3)CC2)nnn1-c1nn2cccc2c(=O)[nH]1 [Q-1201] is 9.00

----------
Readings of log10(IC50) for the listed compounds
# target_under_test: SNAP-hSPR (sepiapterin reductase, SPR) (Homo sapiens)
Each number you see is log10 of IC50, and the unit inside the log is nM.

The examples below pair each entry with its known result.
{"compound": "Cc1c(C(=O)N2CCC3(CC2)CC3C(=O)N2CCOCC2)cnn1-c1nc2c(c(=O)[nH]1)CCC2 (centres unmarked)", "target_under_test": "SNAP-hSPR (sepiapterin reductase, SPR) (Homo sapiens)", "endpoint": "log10(IC50)", "endpoint_result": 0.70}
{"compound": "Cc1cc(=O)[nH]c(-n2ncc(C(=O)N3CCC(C)(C)C3)c2CC(C)C)n1", "target_under_test": "SNAP-hSPR (sepiapterin reductase, SPR) (Homo sapiens)", "endpoint": "log10(IC50)", "endpoint_result": 1.85}
{"compound": "Cc1c(C(=O)N2CC(N3CCC(F)(F)C3)C2)cnn1-c1nc2c(c(=O)[nH]1)COC2", "target_under_test": "SNAP-hSPR (sepiapterin reductase, SPR) (Homo sapiens)", "endpoint": "log10(IC50)", "endpoint_result": 1.85}
{"compound": "CCC1(C#N)CCN(C(=O)c2cnn(-c3nn4cccc4c(=O)[nH]3)c2C)CC1", "target_under_test": "SNAP-hSPR (sepiapterin reductase, SPR) (Homo sapiens)", "endpoint": "log10(IC50)", "endpoint_result": 0.30}
{"compound": "Cc1c(C(=O)N2CC(CNC(=O)OC(C)(C)C)C2)cnn1-c1nc2c(c(=O)[nH]1)CCC2", "target_under_test": "SNAP-hSPR (sepiapterin reductase, SPR) (Homo sapiens)", "endpoint": "log10(IC50)", "endpoint_result": 0.78}

Then this compound:
log10(IC50) on SNAP-hSPR (sepiapterin reductase, SPR) (Homo sapiens) for Cc1c(C(=O)N2CCC(c3nc(-c4cccnc4)cs3)CC2)cnn1-c1nc2c(c(=O)[nH]1)CCC2 is 0.30
